assay: Macrophage cytotoxicity assay (resazurin); conditions: mouse, J774.2 macrophage cell line
So I've got a bunch of molecules here, and I need their CC50 at 24 h values.
Give bare numbers, in µM.

Kindly give each listed record's CC50 at 24 h.
1. CC(=O)N[C@@H]1c2ccccc2C2(CCN(C(=O)c3n[nH]c4ccccc34)CC2)[C@H]1OCc1ccccc1 [ZINC11841871]
2. CC1(C)C[C@H](NC(=O)c2cnn(-c3ncc4c(n3)-c3ccccc3CC4)c2C2CC2)CCO1 [ZINC14970552]
3. Cc1nnc(N2CCN(C(=O)Nc3ccc(F)cc3F)CC2)c2nn(-c3ccccc3)c(C)c12 [ZINC09642432]
4. O=C(NCc1ccc2ncccc2c1)c1cnn(-c2ncc3c(n2)-c2ccccc2CCC3)c1C1CC1 [ZINC12151998]

Solution:
[103, 219, 335, 53]

Where do the numbers come from? From paper PMC6767256.
